FYI, the data here is from ChEMBL document CHEMBL1146219.

- System: Liver
- Experiment notes: Biodistribution in liver of B16F0 tumor bearing C57BL/6J mouse at 0.37-0.74 MBq, iv after 24 hrs
- Format: ADME, organism-based
- Measurement setup: in vivo
compounds and their reported Drug uptake
Dear colleague, please return just the value in % ID/g, with no unit written.

As a guide, the following entries are already answered.
>  <Compound>
COc1cc(NC(C)=O)c([123I])cc1C(=O)NCCCCN(C)C(C)C

>  <Drug uptake (% ID/g)>
0.42

$$$$
>  <Compound>
CCCN(CCC)CCCCNC(=O)c1ccc([123I])cc1

>  <Drug uptake (% ID/g)>
2.9

$$$$
>  <Compound>
CCCCNCCCCNC(=O)c1cc([123I])c(NC(C)=O)cc1OC

>  <Drug uptake (% ID/g)>
0.45

$$$$
>  <Compound>
COc1cc(NC(C)=O)c([123I])cc1C(=O)NCCCCN1CC2CCC1C2 (configuration not stated)

>  <Drug uptake (% ID/g)>
0.19

$$$$
>  <Compound>
CCN(CC)CCNC(=O)c1ccccc1[123I]

>  <Drug uptake (% ID/g)>
0.1

$$$$
>  <Compound>
CCCCN(C)CCCCNC(=O)c1cc([123I])c(NC(C)=O)cc1OC

>  <Drug uptake (% ID/g)>
0.47

$$$$

# input for lookup
Q: Need Drug uptake of O=C(NCCCCN1CC2CCC1C2)c1ccc([123I])cc1 (configuration not stated) , thanks.
Ans: 3.5
